The following molecules are shown together with reported inhibition values.
test: A qHTS for Small Molecule Inhibitors of Shiga Toxin; conditions: Vero cells, Shiga toxin protein synthesis inhibition reporter; at 38.7 µM, hits give high values; note: 0% is about no effect
Hit rate of the full screen: of about 290,000 compounds, about 27,000 (9.3%) were called active. The sample holds actives, similar compounds and a random draw of the others, so the mix is not that of the screen.
State just the number; it will be interpreted in %.

Would you please look over these solved cases?
N#Cc1c(-c2ccc(F)cc2)nc(-c2ccccc2)[nH]c1=O = -4.47
N#Cc1ccc(-c2ccc(F)cc2)nc1Sc1ccccc1 = -10
N#Cc1ccc(-c2nc3cc(C#N)c(C#N)cc3nc2-c2ccccc2)cc1C#N = 56.6

# input Returns the measured inhibition for the input molecule. Input: Fc1ccc2nc(Nc3nc4c(s3)CCCC4)sc2c1
# output 72.1

# input Now give it for COC(=O)c1ccc2ccccc2c1OC1OC(CO)C(O)C(O)C1NC(C)=O (stereo unspecified) too.
# output -11.3

# input Now give it for CC(C)C(NC(=O)c1ccc(Cl)cc1)C(=O)O (stereo unspecified) too.
# output -21.4

# input Now give it for O=C(CCS(=O)(=O)c1ccccc1)Nc1nc2c(s1)CCCC2 too.
# output 20.4
